Ref: patent US8617614B2

experiment: Blood concentration measurement test; assay type: in vivo; details: male, Crl:CD (Sprague-Dawley), rat, plasma, sc, 10 mg/kg, Test Group 3: present drug s.c. 10 mg/kg, 1 day
Quantity: concentration at 1 day (ng/mL)
Respond numerically; units are ng/mL and should not be typed.

Noted for O=C(O)COc1cccc2c1CCC=C2CCO/N=C(\c1ccccc1)c1cccnc1 [present drug] : its concentration at 1 day reads 1.05

====

assay: Blood concentration measurement test; assay type: in vivo; conditions: male, Crl:CD (Sprague-Dawley), rat, plasma, po, 10 mg/kg, Test Group 4: present drug oral 10 mg/kg, 4 hours
Quantity: concentration at 4 hours (ng/mL)
The response must be a number in ng/mL with no trailing unit.

// O=C(O)COc1cccc2c1CCC=C2CCO/N=C(\c1ccccc1)c1cccnc1 : concentration at 4 hours value = 1320

====

test: Blood concentration measurement test; type: in vivo; conditions: male, Crl:CD (Sprague-Dawley), rat, plasma, po, 10 mg/kg, Test Group 4: present drug oral 10 mg/kg, 3 days
Quantity: concentration at 3 days (ng/mL)
Give a bare numeral; the unit ng/mL is implied.

Value of measured concentration at 3 days for the entry O=C(O)COc1cccc2c1CCC=C2CCO/N=C(\c1ccccc1)c1cccnc1 [present drug] : 0.04

====

experiment: Blood concentration measurement test; assay type: in vivo; conditions: male, Crl:CD (Sprague-Dawley), rat, plasma, sc, 10 mg/kg, Test Group 3: present drug s.c. 10 mg/kg, 4 hours
Quantity: concentration at 4 hours (ng/mL)
Numeric only. Scale: ng/mL

Measured concentration at 4 hours, O=C(O)COc1cccc2c1CCC=C2CCO/N=C(\c1ccccc1)c1cccnc1 : 685

====

assay: Blood concentration measurement test; format: in vivo; conditions: male, Crl:CD (Sprague-Dawley), rat, plasma, sc, 10 mg/kg, Test Group 3: present drug s.c. 10 mg/kg, 3 days
Quantity: concentration at 3 days
Hi, when you answer, please include the unit after the number. Thanks!

// concentration at 3 days value for O=C(O)COc1cccc2c1CCC=C2CCO/N=C(\c1ccccc1)c1cccnc1 : 0.05 ng/mL

====

experiment: Blood concentration measurement test; type: in vivo; settings: male, Crl:CD (Sprague-Dawley), rat, plasma, sc, 10 mg/kg, Test Group 3: present drug s.c. 10 mg/kg, 8 hours
Quantity: concentration at 8 hours (ng/mL)
# number only, unit ng/mL dropped from output

Note to self: concentration at 8 hours recorded for O=C(O)COc1cccc2c1CCC=C2CCO/N=C(\c1ccccc1)c1cccnc1 was 870

====

experiment: Blood concentration measurement test; type: in vivo; settings: male, Crl:CD (Sprague-Dawley), rat, plasma, po, 10 mg/kg, Test Group 4: present drug oral 10 mg/kg, 1 day
Quantity: concentration at 1 day (µg/mL)
Give a bare numeral; the unit µg/mL is implied.

Record O=C(O)COc1cccc2c1CCC=C2CCO/N=C(\c1ccccc1)c1cccnc1 , field concentration at 1 day: 0.08
